Ref: ChEMBL document CHEMBL1909046

Target: Cytochrome P450 3A4 (Homo sapiens, UniProt P08684); note: in other assays of this panel Not Active means under 50% inhibition at 10 µM
Sequence (P08684 whole entry): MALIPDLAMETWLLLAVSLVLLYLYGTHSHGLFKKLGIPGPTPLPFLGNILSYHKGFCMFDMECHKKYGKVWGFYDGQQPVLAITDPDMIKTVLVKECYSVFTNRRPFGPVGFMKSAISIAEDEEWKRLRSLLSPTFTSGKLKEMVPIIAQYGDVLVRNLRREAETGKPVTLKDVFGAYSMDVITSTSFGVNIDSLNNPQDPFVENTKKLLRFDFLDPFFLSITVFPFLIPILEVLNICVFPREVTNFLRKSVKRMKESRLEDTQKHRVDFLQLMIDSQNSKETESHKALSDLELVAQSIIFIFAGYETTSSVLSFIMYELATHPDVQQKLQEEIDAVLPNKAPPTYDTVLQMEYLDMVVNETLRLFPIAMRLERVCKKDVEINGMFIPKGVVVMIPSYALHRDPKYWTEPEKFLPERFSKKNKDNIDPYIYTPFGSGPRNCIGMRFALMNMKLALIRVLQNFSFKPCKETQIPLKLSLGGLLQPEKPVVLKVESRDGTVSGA
Conditions: bti-tn-5b1-4

# Substance, Ki
data = [
    ("POVIDONE", "Not Active"),
    ("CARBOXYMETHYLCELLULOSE", "Not Active"),
    ("LEAD(IV) ACETATE", "Not Active"),
    ("COPPER(II) OXIDE", "Not Active"),
    ("CHROMIC CHLORIDE", "Not Active"),
]

====

Test: DRUGMATRIX: Tumor Necrosis Factor (TNF), Non-Selective radioligand binding (ligand: [125I] TNF-alpha)
Type: cell membranes, Membrane
Details: u-937; Not Active = under 50% inhibition at 10 µM

# Compound, IC50
measured = [
    ("CCN(CC)N=O [N-NITROSODIETHYLAMINE]", "Not Active"),
    ("C[N+](C)(C)CCOC(N)=O.[Cl-] [CARBACHOL]", "Not Active"),
    ("CCN1CCCC1CNC(=O)c1cc(S(N)(=O)=O)ccc1OC (stereo not given) [SULPIRIDE]", "Not Active"),
    ("CCOC(=O)C1=C(C)NC(C)=C(C(=O)OCC)C1c1ccccc1/C=C/C(=O)OC(C)(C)C [LACIDIPINE]", "Not Active"),
    ("O=C(O)c1cc(/N=N/c2ccc(S(=O)(=O)Nc3ccccn3)cc2)ccc1O [SULFASALAZINE]", "Not Active"),
]

====

Reported pKi values for the following compounds.
Target: Muscarinic acetylcholine receptor M4 (Homo sapiens, UniProt P08173); note: in other assays of this panel Not Active means under 50% inhibition at 10 µM
Sequence (P08173 whole entry): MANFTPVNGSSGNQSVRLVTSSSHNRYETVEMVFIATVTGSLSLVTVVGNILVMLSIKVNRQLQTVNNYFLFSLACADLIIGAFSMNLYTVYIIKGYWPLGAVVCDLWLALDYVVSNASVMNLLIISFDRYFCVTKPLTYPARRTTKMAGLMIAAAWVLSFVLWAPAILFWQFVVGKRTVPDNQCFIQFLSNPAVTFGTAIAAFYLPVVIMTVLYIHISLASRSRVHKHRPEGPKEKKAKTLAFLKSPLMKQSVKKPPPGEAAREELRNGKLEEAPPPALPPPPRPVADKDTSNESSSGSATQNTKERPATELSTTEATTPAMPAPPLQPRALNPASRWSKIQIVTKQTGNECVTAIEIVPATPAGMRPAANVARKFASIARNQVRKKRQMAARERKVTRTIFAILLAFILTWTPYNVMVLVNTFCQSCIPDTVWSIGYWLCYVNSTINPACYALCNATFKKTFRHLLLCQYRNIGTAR
Type: cell membranes, CHO-K1, Membrane
Details: read-out: Ki
pKi: −log10 of the molar value.

# Compound, pKi
rows = [
    ("CC(CN1c2ccccc2Sc2ccccc21)N(C)C (centres undefined)", 8.98),
    ("CNCCCC12CCC(c3ccccc31)c1ccccc12", 7.24),
    ("Cc1cc(C(C)(C)C)c(O)c(C)c1CC1=NCCN1", 6.34),
    ("CC1(COc2ccc(CC3SC(=O)NC3=O)cc2)CCCCC1 (centres undefined)", 5.65),
]

====

Target: Amine oxidase [flavin-containing] A (Homo sapiens, UniProt P21397)
Sequence (P21397 whole entry): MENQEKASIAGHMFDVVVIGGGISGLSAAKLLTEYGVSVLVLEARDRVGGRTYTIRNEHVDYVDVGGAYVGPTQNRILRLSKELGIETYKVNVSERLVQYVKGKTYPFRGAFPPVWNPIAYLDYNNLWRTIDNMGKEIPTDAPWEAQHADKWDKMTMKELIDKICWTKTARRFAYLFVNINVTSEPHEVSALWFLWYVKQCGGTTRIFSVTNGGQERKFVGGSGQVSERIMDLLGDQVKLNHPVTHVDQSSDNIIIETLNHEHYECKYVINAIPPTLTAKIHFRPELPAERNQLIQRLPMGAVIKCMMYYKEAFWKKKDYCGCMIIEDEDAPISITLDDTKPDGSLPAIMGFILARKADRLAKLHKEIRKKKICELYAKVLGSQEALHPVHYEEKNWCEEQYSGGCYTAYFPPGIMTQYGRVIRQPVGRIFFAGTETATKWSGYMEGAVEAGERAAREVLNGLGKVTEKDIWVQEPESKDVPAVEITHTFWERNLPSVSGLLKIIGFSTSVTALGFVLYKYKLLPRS
Experiment: DRUGMATRIX: Monoamine Oxidase MAO-A enzyme inhibition (substrate: Kynuramine)
Design: species or system BTI-TN-5B1-4
Details: Not Active = under 50% inhibition at 10 µM; read-out: IC50
Reported IC50 values for the following compounds.
Readout label: IC50

# Compound, Readout value
data = [
    ("c1ccc2c(c1)Nc1ccccc1S2 [PHENOTHIAZINE]", "592 nM"),
    ("CC1(COc2ccc(CC3SC(=O)NC3=O)cc2)CCCCC1 (stereo not drawn) [CIGLITAZONE]", "29200 nM"),
    ("CC(=O)Nc1ccc2c(c1)Cc1ccccc1-2 [2-ACETYLAMINOFLUORENE]", "59 nM"),
]
